# experimentalSystem: T1, hBCMA (human BCMA) (Homo sapiens, UniProt Q02223)
# T1 sequence (Q02223 1-184): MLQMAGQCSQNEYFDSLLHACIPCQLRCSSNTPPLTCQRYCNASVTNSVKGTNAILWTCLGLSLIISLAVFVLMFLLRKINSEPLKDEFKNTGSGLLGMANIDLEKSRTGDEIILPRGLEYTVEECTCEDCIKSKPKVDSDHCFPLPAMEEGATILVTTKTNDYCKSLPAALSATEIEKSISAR
# assayDetails: Kinetics and affinity of hBCMA/human IgG interactions by SPR (Bio-Rad Proteon XPR36)
# Format: binding
# conditionDetails: huBCMA, 37° C.
Listing of recorded ka (1/Ms) huBCMA @ 37° C. by entry.
Your answer is read as M⁻¹ s⁻¹, so omit the unit and give the number.

Solved entries:
>  <molecule>
L3.PY/H2.DY: anti-BCMA antibody (antibody, V domains shown) VH: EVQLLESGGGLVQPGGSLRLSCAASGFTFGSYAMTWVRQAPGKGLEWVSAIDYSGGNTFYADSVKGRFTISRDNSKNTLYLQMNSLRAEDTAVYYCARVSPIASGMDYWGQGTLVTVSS VL: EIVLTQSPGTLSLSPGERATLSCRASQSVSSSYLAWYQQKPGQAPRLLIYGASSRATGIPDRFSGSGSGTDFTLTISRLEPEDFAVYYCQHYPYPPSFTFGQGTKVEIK

>  <readoutUnits>
M⁻¹ s⁻¹

>  <valueMeasured>
2.6e+06

$$$$
>  <molecule>
L3.PY/L3.KY/H3.YA: anti-BCMA antibody (antibody, V domains shown) VH: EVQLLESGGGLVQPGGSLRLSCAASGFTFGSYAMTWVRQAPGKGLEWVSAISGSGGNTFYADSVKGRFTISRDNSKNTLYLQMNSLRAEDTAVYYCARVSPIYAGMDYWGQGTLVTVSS VL: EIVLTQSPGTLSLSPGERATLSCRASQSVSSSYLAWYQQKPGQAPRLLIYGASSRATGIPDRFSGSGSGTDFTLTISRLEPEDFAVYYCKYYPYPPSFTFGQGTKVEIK

>  <readoutUnits>
M⁻¹ s⁻¹

>  <valueMeasured>
3.3e+06

$$$$
>  <molecule>
L3.PY/L1.AH/H3.YA: anti-BCMA antibody (antibody, V domains shown) VH: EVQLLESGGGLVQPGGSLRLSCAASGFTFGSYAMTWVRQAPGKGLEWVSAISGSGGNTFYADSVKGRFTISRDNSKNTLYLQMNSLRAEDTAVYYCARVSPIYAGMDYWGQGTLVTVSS VL: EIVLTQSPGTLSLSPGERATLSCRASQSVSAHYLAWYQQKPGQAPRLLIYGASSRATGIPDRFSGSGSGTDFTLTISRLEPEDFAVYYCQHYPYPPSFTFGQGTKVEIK

>  <readoutUnits>
M⁻¹ s⁻¹

>  <valueMeasured>
3e+06

$$$$
>  <molecule>
L3.PY/L3.KY/H2.DY: anti-BCMA antibody (antibody, V domains shown) VH: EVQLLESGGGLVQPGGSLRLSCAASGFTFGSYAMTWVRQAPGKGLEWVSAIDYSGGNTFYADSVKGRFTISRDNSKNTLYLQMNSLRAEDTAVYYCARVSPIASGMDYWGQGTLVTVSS VL: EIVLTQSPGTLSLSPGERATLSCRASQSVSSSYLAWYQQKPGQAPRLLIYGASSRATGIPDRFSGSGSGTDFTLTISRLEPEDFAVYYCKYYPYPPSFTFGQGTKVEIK

>  <readoutUnits>
M⁻¹ s⁻¹

>  <valueMeasured>
3.19e+06

$$$$

Item under review: L3.PY/L1.AH/H3.TAQ: anti-BCMA antibody (antibody, V domains shown) VH: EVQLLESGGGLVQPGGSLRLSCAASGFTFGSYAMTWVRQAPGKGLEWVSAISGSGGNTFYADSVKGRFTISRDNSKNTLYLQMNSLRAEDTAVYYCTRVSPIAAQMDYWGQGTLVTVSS VL: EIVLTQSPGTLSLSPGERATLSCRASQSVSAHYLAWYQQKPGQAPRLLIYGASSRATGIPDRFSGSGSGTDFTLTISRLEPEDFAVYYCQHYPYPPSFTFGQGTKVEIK . Reported ka (1/Ms) huBCMA @ 37° C.?
3.27e+06

The measurements presented in this section are drawn from patent US11814435B2.
